For each of the molecules below, state its CC50.
System: DU-145
Experiment: Cytotoxicity against human DU145 cells after 48 hrs by SRB assay
Format: functional, cell-based
Conditions: Homo sapiens, DU-145, 48 h; read-out: LC50 (the source's name)
Numbers only, in nM.

smiles_string | endpoint_value
C/C=C1\NC(=O)[C@H](Cc2ccccc2)NC(=O)[C@@H](C(C)C)NC(=O)[C@@H]([C@H](C)CC)NC(=O)[C@H](NC(=O)[C@H](NC(=O)[C@H](CCCNC(=O)C(F)(F)F)NC(=O)[C@H]2CCCN2C(=O)[C@H](NC(=O)[C@@H](NC(=O)[C@@H](NC(=O)[C@H](NC(=O)CC[C@@H](C)CC)C(C)C)[C@@H](C)O)C(C)C)C(C)C)[C@H](C)CC)[C@H](C)OC(=O)[C@H](C(C)C)NC1=O | 898

The following molecules each have a reported value; give each one's CC50.
1. C/C=C1\NC(=O)[C@H](Cc2ccccc2)NC(=O)[C@@H](C(C)C)NC(=O)[C@@H]([C@H](C)CC)NC(=O)[C@H](NC(=O)[C@H](NC(=O)[C@H](CCCN)NC(=O)[C@H]2CCCN2C(=O)[C@H](NC(=O)[C@@H](NC(=O)[C@@H](NC(=O)CNC(=O)CCCC(C)C)[C@@H](C)O)C(C)C)C(C)C)[C@H](C)CC)[C@H](C)OC(=O)[C@H](C(C)C)NC1=O
2. C/C=C1\NC(=O)[C@H](Cc2ccccc2)NC(=O)[C@@H](C(C)C)NC(=O)[C@@H]([C@H](C)CC)NC(=O)[C@H](NC(=O)[C@H](NC(=O)[C@H](CCCN)NC(=O)[C@H]2CCCN2C(=O)[C@H](NC(=O)[C@@H](NC(=O)[C@H](CCC(=O)O)NC(=O)[C@H](NC(=O)CCCC(C)C)C(C)C)C(C)C)C(C)C)[C@H](C)CC)[C@H](C)OC(=O)[C@H](C(C)C)NC1=O
3. C/C=C1\NC(=O)[C@H](Cc2ccccc2)NC(=O)[C@@H](C(C)C)NC(=O)[C@@H]([C@H](C)CC)NC(=O)[C@H](NC(=O)[C@H](NC(=O)[C@H](CCCN)NC(=O)[C@H]2CCCN2C(=O)[C@H](NC(=O)[C@H](Cc2ccccc2)NC(=O)[C@@H](NC(=O)[C@H](NC(=O)CCCC(C)C)C(C)C)[C@@H](C)O)C(C)C)[C@H](C)CC)[C@H](C)OC(=O)[C@H](C(C)C)NC1=O
4. C/C=C1\NC(=O)[C@H](Cc2ccccc2)NC(=O)[C@@H](C(C)C)NC(=O)[C@@H]([C@H](C)CC)NC(=O)[C@H](NC(=O)[C@H](NC(=O)[C@H](CCCN)NC(=O)[C@H]2CCCN2C(=O)[C@H](NC(=O)[C@@H](NC(=O)[C@@H](NC(=O)[C@@H](NC(=O)CCCC(C)C)C(C)C)[C@@H](C)O)C(C)C)C(C)C)[C@H](C)CC)[C@H](C)OC(=O)[C@H](C(C)C)NC1=O
5. C/C=C1\NC(=O)[C@H](Cc2ccccc2)NC(=O)[C@@H](C(C)C)NC(=O)[C@@H]([C@H](C)CC)NC(=O)[C@H](NC(=O)[C@H](NC(=O)[C@H](CCCN)NC(=O)[C@H]2CCCN2C(=O)[C@H](NC(=O)[C@@H](NC(=O)[C@@H]2CCCN2C(=O)[C@H](NC(=O)CCCC(C)C)C(C)C)C(C)C)C(C)C)[C@H](C)CC)[C@H](C)OC(=O)[C@H](C(C)C)NC1=O
6. C/C=C1\NC(=O)[C@H](Cc2ccccc2)NC(=O)[C@@H](C(C)C)NC(=O)[C@@H]([C@H](C)CC)NC(=O)[C@H](NC(=O)[C@H](NC(=O)[C@H](CCCN)NC(=O)[C@H]2CCCN2C(=O)[C@H](NC(=O)[C@H](NC(=O)[C@@H](NC(=O)[C@H](NC(=O)CCCC(C)C)C(C)C)[C@@H](C)O)C(C)C)C(C)C)[C@H](C)CC)[C@H](C)OC(=O)[C@H](C(C)C)NC1=O

Result block:
1. 1750
2. 1370
3. 785
4. 842
5. 1430
6. 1650

The following molecules each have a reported value; give each one's CC50.
1. C/C=C1\NC(=O)[C@H](Cc2ccccc2)NC(=O)[C@@H](C(C)C)NC(=O)[C@@H]([C@H](C)CC)NC(=O)[C@H](NC(=O)[C@H](NC(=O)[C@H](CCCNC(=O)CCC2CCCCC2)NC(=O)[C@H]2CCCN2C(=O)[C@H](NC(=O)[C@@H](NC(=O)[C@@H](NC(=O)[C@H](NC(=O)CCCC(C)C)C(C)C)[C@@H](C)O)C(C)C)C(C)C)[C@H](C)CC)[C@H](C)OC(=O)[C@H](C(C)C)NC1=O
2. C/C=C1\NC(=O)[C@H](Cc2ccccc2)NC(=O)[C@@H](C(C)C)NC(=O)[C@@H]([C@H](C)CC)NC(=O)[C@H](N)[C@H](C)OC(=O)[C@H](C(C)C)NC1=O
3. CC[C@@H]1NC(=O)[C@H](Cc2ccccc2)NC(=O)[C@@H](C(C)C)NC(=O)[C@@H]([C@H](C)CC)NC(=O)[C@H](NC(=O)[C@H](NC(=O)[C@H](CCCN)NC(=O)[C@H]2CCCN2C(=O)[C@H](NC(=O)[C@@H](NC(=O)[C@@H](NC(=O)[C@H](NC(=O)CCCC(C)C)C(C)C)[C@@H](C)O)C(C)C)C(C)C)[C@H](C)CC)[C@H](C)OC(=O)[C@H](C(C)C)NC1=O
4. C/C=C1\NC(=O)[C@H](Cc2ccccc2)NC(=O)[C@@H](C(C)C)NC(=O)[C@@H]([C@H](C)CC)NC(=O)[C@H](NC(=O)[C@H](NC(=O)[C@H](CCCN)NC(=O)[C@@H]2CC[C@H](c3ccccc3)N2C(=O)[C@H](NC(=O)[C@@H](NC(=O)[C@@H](NC(=O)[C@H](NC(=O)CC[C@@H](C)CC)C(C)C)[C@@H](C)O)C(C)C)C(C)C)[C@H](C)CC)[C@H](C)OC(=O)[C@H](C(C)C)NC1=O

Result block:
1: 853; 2: 3310; 3: 1700; 4: 1360
